- tgt: CD40-CD40L (Homo sapiens, UniProt P25942+P29965)
- methodNotes: Inhibition of interaction of CD40 (unknown origin) transfected in HEK Blue cells with recombinant human CD40L assessed as reduction in CD40L-induced NF-kappaB activation after 18 hrs by spectrophotometry based SEAP reporter gene assay
- Assay type: cell-based
reportedEndpoint: pIC50
Notebook: values listed as pIC50 are -log10 of the concentration (mol/L).

Solved entries (count: 3):
>  <chemicalString>
O=C(Nc1ccc(-c2ccc(C(=O)Nc3cccc4cccc(S(=O)(=O)O)c34)cc2)cc1)c1ccc([N+](=O)[O-])cc1

>  <pIC50>
4.99

$$$$
>  <chemicalString>
O=C(Nc1ccc2c(O)c(/N=N/c3ccc(/N=N\c4ccc(S(=O)(=O)O)cc4)cc3S(=O)(=O)O)c(S(=O)(=O)O)cc2c1)Nc1ccc2c(O)c(/N=N/c3ccc(/N=N\c4ccc(S(=O)(=O)O)cc4)cc3S(=O)(=O)O)c(S(=O)(=O)O)cc2c1

>  <pIC50>
4.37

$$$$
>  <chemicalString>
O=C(Nc1ccc(-c2ccc(C(=O)Nc3ccc(C(=O)O)c4ccccc34)cc2)cc1)c1ccc([N+](=O)[O-])cc1

>  <pIC50>
5.03

$$$$

As a next step, examine the molecule that follows.
Requested field: pIC50. Item: COC(=O)c1ccc(C(=O)Nc2ccc(-c3ccc(C(=O)Nc4cccc5cccc(S(=O)(=O)O)c45)cc3)cc2)cc1 4.77

----------
Measured pIC50 accompanies every entry in the list below.
- tgt: CD40-CD40L (Homo sapiens, UniProt P25942+P29965)
- methodNotes: Inhibition of interaction of CD40 in promoter/enhancer region of aicda-fused Ds-Red reporter transfected human B cells with recombinant human CD40L assessed as reduction in CD40L/IL-4-induced B cell activation by measuring AID expression after 2 days by flow cytometric analysis
Notebook: values listed as pIC50 are -log10 of the concentration (mol/L).

>  <chemicalString>
COC(=O)c1ccc(C(=O)Nc2ccc(-c3ccc(C(=O)Nc4cccc5cccc(S(=O)(=O)O)c45)cc3)cc2)cc1

>  <pIC50>
5.35

$$$$
>  <chemicalString>
O=C(Nc1ccc(-c2ccc(C(=O)Nc3ccc(C(=O)O)c4ccccc34)cc2)cc1)c1ccc([N+](=O)[O-])cc1

>  <pIC50>
4.80

$$$$

As a next step, examine the compound that follows.
Item O=C(Nc1ccc(-c2ccc(C(=O)Nc3cccc4cccc(S(=O)(=O)O)c34)cc2)cc1)c1ccc([N+](=O)[O-])cc1 with CD40-CD40L (Homo sapiens, UniProt P25942+P29965) - pIC50? 4.88
